tested on: PEG-3; experiment: Peg3 promoter luciferase inhibitors, potency, dose response, cell-based, HeLa, CREF/GAPDH counter-screen panel (AID 624167); details: HeLa PEG-Prom luciferase reporter, overnight, CREF/GAPDH counter-screens, run 1, dose range 1, individual replicate IC50 per panel
Measured parameter: pIC50
Quick note: pIC50 values are minus log10 of concentrations in mol/L.

Observe how each entry below is paired with its result.
INSERT INTO results (molecule, measured_parameter, endpoint_value) VALUES
  ('Cc1cc(C)c2c(N)c3ccccc3nc2n1', 'pIC50', 4.73),
  ('Cc1cc(C(=O)COC(=O)c2ccccc2Br)c(C)n1CC1CCCO1 (stereo not given)', 'pIC50', 5.51),
  ('CC(C)c1ccc(-c2nc3ccccc3s2)cc1', 'pIC50', 4.85);

Give the reported value of pIC50 for this record: COc1ccc(C(=O)Nc2cccc(C(=O)N/N=C/c3ccc(OC)cc3OC)c2)cc1
4.55

Give the reported value of pIC50 for this record: CCCCCCCCCC[N+](C)(C)CC/C=C1/c2ccccc2Sc2ccc(Cl)cc21
4.83

Give the reported value of pIC50 for this record: COc1ccc2c(c1)c(=Cc1ccc(N(C)C)cc1)c1cc(-c3ccccc3)[n+](C)n12
5.50

Give the reported value of pIC50 for this record: COc1ccc(CN(C)C(=O)c2cc(-c3ccc(C)cc3C)nc3ccccc23)c(OC)c1OC
4.83

Give the reported value of pIC50 for this record: COC1=CC(=O)c2c(ccc3ncnc(N)c23)C1=O
5.83

Give the reported value of pIC50 for this record: Cc1c(CCOC(=O)C23CC4CC(CC(C)(C4)C2)C3)sc[n+]1CC(=O)c1ccccc1
4.66

Give the reported value of pIC50 for this record: CCN1CCN(c2nc(Nc3cc(OC)ccc3OC)nc(Nc3cc(OC)ccc3OC)n2)CC1
4.77

---

molecular target: PEG-3 (UniProt Q6IN02); assay: Peg3 promoter luciferase inhibitors, potency, dose response, cell-based, HeLa, CREF/GAPDH counter-screen panel (AID 624167); conditions: HeLa PEG-Prom luciferase reporter, overnight, CREF/GAPDH counter-screens, mean of runs
Sequence (Q6IN02 whole entry, looked up): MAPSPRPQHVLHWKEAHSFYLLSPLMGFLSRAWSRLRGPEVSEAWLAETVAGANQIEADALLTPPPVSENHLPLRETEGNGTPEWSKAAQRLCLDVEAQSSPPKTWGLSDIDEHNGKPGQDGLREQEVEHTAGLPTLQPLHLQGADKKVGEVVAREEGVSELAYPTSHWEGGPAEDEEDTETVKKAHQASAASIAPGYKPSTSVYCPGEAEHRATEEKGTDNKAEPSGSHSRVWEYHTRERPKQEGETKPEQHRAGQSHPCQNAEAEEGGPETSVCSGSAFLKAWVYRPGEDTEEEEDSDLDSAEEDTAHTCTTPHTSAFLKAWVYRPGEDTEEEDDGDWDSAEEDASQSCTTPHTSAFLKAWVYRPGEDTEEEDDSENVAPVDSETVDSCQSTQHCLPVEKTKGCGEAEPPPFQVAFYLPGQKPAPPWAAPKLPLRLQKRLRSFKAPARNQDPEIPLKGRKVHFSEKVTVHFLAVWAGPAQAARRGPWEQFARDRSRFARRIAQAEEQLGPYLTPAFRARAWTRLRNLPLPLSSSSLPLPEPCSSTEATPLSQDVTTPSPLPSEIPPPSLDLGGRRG
The source made the active and inactive calls.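 How the source made its calls: active means mean IC50 for reducing PEG3 promoter reporter signal at or below a set limit, with IC50 above the limit in both counter screens; inactive means the rest, including counter screen hits.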
Hi there, use one of these labels in your reply, thanks! active, inactive

INSERT INTO measurements (compound, tested_on, class_name) VALUES
  ('COc1ccc(-c2nc(NC(=O)c3n[nH]c(=O)c4ccccc34)sc2C)cc1', 'PEG-3 (UniProt Q6IN02)', 'inactive'),
  ('CC(C)CCCCCCCCCCCCC(=O)NCC(=O)NC1C(O)C(O)C(Nc2ncnc3nc[nH]c23)OC1C(O)CO (stereo not given)', 'PEG-3 (UniProt Q6IN02)', 'active'),
  ('CS(=O)(=O)Nc1cccc(NC(=O)C2Cc3c(-c4cccc(F)c4)ccnc3O2)c1 (stereo not given)', 'PEG-3 (UniProt Q6IN02)', 'active'),
  ('O=C(NCCc1ccccc1)c1ccc2c(c1)OCCO2', 'PEG-3 (UniProt Q6IN02)', 'active');

Assay result, entry CC(=O)Nc1ccc(NC(=O)c2nc(S(=O)(=O)Cc3cccc(C)c3)ncc2Cl)cc1 — outcome?
active

Assay result, entry CCOC(=O)/C(=C\c1ccccc1)C(=O)CCN1CCOCC1 — outcome?
active

---

tested on: PEG-3; assay: Peg3 promoter luciferase inhibitors, potency, dose response, cell-based, HeLa, CREF/GAPDH counter-screen panel (AID 624167); conditions: HeLa PEG-Prom luciferase reporter, overnight, CREF/GAPDH counter-screens, run 1, dose range 1, individual replicate IC50 per panel
Reported pIC50 values for a set of compounds
Quick note: pIC50 values are minus log10 of concentrations in mol/L.

INSERT INTO assay_data (compound, measured_parameter, endpoint_value) VALUES
  ('COc1ccc2sc(-c3ccc(S(C)(=O)=O)cc3)c(C#Cc3cncn3C)c2c1', 'pIC50', 4.67),
  ('Cc1ccc(NCCN(C)C)c2c(=O)c3cc(O)ccc3sc12', 'pIC50', 4.72),
  ('CN(C)CCCNc1ncnc2oc(-c3ccccc3)c(-c3ccccc3)c12', 'pIC50', 4.78),
  ('O=C(O)c1ccc(N/N=C/c2ccc3c(c2)OCO3)cc1', 'pIC50', 5.91),
  ('COc1cc(SC)ccc1C(=O)Nc1ncc(C)s1', 'pIC50', 5.52),
  ('CN1OC[C@@H]2CN[C@H](c3ccc(-c4cc5ccccc5o4)cc3)C[C@@H]21', 'pIC50', 4.60);

Give the reported value of pIC50 for this record: COc1ccc(CCN2C(=O)C=CC2=O)cc1OC
5.00

Give the reported value of pIC50 for this record: COc1ccc(C2c3ccc4ccccc4c3Oc3ncn(CCCO)c(=N)c32)cc1 (configuration not stated)
4.64

Give the reported value of pIC50 for this record: CCc1nccn1C(=O)c1cnn2c(C(F)F)cc(-c3ccc(C)cc3)nc12
4.73

Give the reported value of pIC50 for this record: OCCCNc1nccc(-c2cc(Nc3cccc(Cl)c3)ncn2)n1
6.18

Give the reported value of pIC50 for this record: COc1ccc(CC(N)c2csc(NC(=O)Nc3cc(OC)ccc3OC)n2)cc1 (configuration not stated)
4.78

Give the reported value of pIC50 for this record: CCC1(OC(=O)CN)C(=O)OCc2c1cc1n(c2=O)Cc2cc3ccccc3nc2-1 (configuration not stated)
5.42

Give the reported value of pIC50 for this record: Cc1ccc(C2(CCNCc3ccc(N(C)C)cc3)CCOC(C(C)C)C2)cc1 (configuration not stated)
4.59

Give the reported value of pIC50 for this record: COc1ccc(-c2cc(C(=O)N(C)Cc3ccccc3F)c3ccccc3n2)cc1OC
4.62

Hey, just so you know, these numbers are from PubChem BioAssay AID624167.
